# CC50 values compiled below
experimental-protocol: Cytotoxicity against mock-infected MDBK cells after 48 to 96 hrs by MTT assay
Format: cell-based, Bos taurus
condition-label: cattle

compound: c1ccc2[nH]c(CC3CCCC3)nc2c1
CC50: > 100 µM
--
compound: c1ccc2c(c1)ncn2C1CCCCO1 (stereo not drawn)
CC50: > 100 µM
--
compound: COc1ccc(-c2nc3cc(Cl)ccc3n2[C@@H]2CCCN3CCCC[C@H]23)cc1
CC50: > 100 µM

###

# CC50 values compiled below
experimental-protocol: Cytotoxicity against mock-infected african green monkey Vero 76 cells after 48 to 96 hrs by MTT assay
Assay type: cell-based
condition-label: chlorocebus sabaeus, mock-infected Vero 76 cells

compound: Oc1ccc(-c2nc3cc(C(F)(F)F)ccc3n2C[C@@H]2CCCN3CCCC[C@H]23)cc1
CC50: 78 µM

compound: COc1ccc(Cc2nc3cc(C(F)(F)F)ccc3n2C[C@@H]2CCCN3CCCC[C@H]23)cc1
CC50: 89 µM

compound: COc1ccc(Cc2nc3cc(Cl)c(Cl)cc3[nH]2)cc1
CC50: > 100 µM

compound: FC(F)(F)c1ccc2c(c1)nc(Cc1ccccc1)n2C[C@H]1CCCN2CCCC[C@H]12
CC50: 93 µM

compound: COCCn1c(-c2ccc(OC)cc2)nc2cc(C(F)(F)F)ccc21
CC50: > 100 µM

compound: Nc1ccc(Cc2nc3cc(C(F)(F)F)ccc3[nH]2)cc1
CC50: > 100 µM

compound: Nc1nc2c(ncn2COCCO)c(=O)[nH]1
CC50: > 100 µM

compound: FC(F)(F)c1ccc2[nH]c(Cc3ccc(Cl)cc3)nc2c1
CC50: 70 µM

Origin of measurements: ChEMBL document CHEMBL3351523
